Measured values drawn from patent US20100087413A1 for this set.

molecular target: human 11β-HSD1 (Homo sapiens); construct: expressed in transfected cells; host or cells: HEK-293 cells, stably transfected; cell lysate; experiment: 11β-HSD1 reductase activity (conversion of radiolabelled cortisone to cortisol) in lysates of stably transfected HEK-293 cells; assay type: biochemical; details: 20 μM compound, 100 nM cortisone substrate, HEK-293 lysate
Sequence (P28845 whole entry): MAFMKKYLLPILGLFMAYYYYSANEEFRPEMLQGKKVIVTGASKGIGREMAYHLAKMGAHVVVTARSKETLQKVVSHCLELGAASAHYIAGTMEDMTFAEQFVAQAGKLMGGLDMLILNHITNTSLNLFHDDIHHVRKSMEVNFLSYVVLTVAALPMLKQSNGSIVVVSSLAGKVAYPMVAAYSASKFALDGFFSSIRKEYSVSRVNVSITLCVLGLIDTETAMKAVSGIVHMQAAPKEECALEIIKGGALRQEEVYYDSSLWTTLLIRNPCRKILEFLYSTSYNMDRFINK
Marks after values point to notes of the source that are not given here.
measurement-name: 11β-HSD1 % of control

1) COc1ccc(OC)c(C2C(C(=O)c3ccc(Br)cc3)=C(O)C(=O)N2CCCn2ccnc2)c1 (stereo not shown) [BNW2]: 78.84 % of control
2) Cc1nn(CC(=O)Nc2sc(C)c(C)c2C(N)=O)c(C)c1[N+](=O)[O-] [BNW4]: 82.24 % of control
3) COc1ccc(CCNC(=O)C23CCC(C)(C(=O)C2=O)C3(C)C)cc1OC (stereo not shown) [BNW7]: 9.593* % of control
4) C[C@H]1CC[C@]2(C)[C@H]3C(=O)C=C4[C@@H]5C[C@@](C)(C(=O)O)CC[C@]5(C)CC[C@@]4(C)[C@]3(C)CC[C@H]2C1(C)C [BNW25]: 2.884* % of control

----------
biological target: human 11β-HSD2 (Homo sapiens, UniProt P80365); construct: expressed in transfected cells; host or cells: HEK-293 cells, stably transfected; cell lysate; experiment: 11β-HSD2 oxidase activity (conversion of radiolabelled cortisol to cortisone) in lysates of stably transfected HEK-293 cells; type: biochemical; settings: 20 μM compound, 25 nM cortisol substrate, HEK-293 lysate
Sequence (P80365 whole entry): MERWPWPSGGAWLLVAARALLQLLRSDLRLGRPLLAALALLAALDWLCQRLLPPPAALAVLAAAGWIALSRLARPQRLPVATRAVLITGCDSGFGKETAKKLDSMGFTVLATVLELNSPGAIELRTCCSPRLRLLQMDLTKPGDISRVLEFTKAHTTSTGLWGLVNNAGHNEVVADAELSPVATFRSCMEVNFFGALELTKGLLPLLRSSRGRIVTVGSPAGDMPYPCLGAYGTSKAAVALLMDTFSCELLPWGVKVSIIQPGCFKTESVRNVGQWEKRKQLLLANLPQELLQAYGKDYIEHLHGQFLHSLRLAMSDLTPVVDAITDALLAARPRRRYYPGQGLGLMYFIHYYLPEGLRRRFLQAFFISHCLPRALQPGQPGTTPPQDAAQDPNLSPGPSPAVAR
measurement-name: 11β-HSD2 % of control

1) COc1ccc(C(=O)CNc2cccc(Cl)c2Cl)c(C(F)(F)F)c1 [BNW6]: 145 % of control
2) COc1cc2c(cc1OC)C(COc1ccc([N+](=O)[O-])cc1)N(C(=O)c1ccc(Cl)c([N+](=O)[O-])c1)CC2 (centres unmarked) [BNW27]: 126.4 % of control
3) COCCC1C(=O)C(O)=C(C(=O)c2ccc(OC)c(C)c2)C1c1ccc(Cl)cc1Cl (centres unmarked) [BNW9]: 77.43 % of control
4) CCOc1ccc(C2c3cc(OCC)c(OCC)cc3CC(=O)N2c2ccc(C(=O)O)cc2)cc1OCC (centres unmarked) [BNW17]: 120.1 % of control
5) COc1cccc(/C=N/NC(=O)CSCc2ccccc2C)c1OC [BNW23]: 132.6608 % of control
6) CCN(CC)S(=O)(=O)c1ccc(Cl)c(C(=O)Nc2nc3ccc(S(C)(=O)=O)cc3s2)c1 [BNW12]: 132.1 % of control
7) Cc1n[nH]c(O)c1C(c1ccc(-c2ccc(Cl)c(C(=O)O)c2)o1)c1c(O)n[nH]c1C [BNW5]: 97.47 % of control
8) COc1ccc(OC)c(C2C(C(=O)c3ccc(Br)cc3)=C(O)C(=O)N2CCCn2ccnc2)c1 (centres unmarked) [BNW2]: 77.95 % of control

----------
target: human 11β-HSD1 (Homo sapiens); construct: expressed in transfected cells; host or cells: HEK-293 cells, stably transfected; cell lysate; assay: 11β-HSD1 reductase activity (conversion of radiolabelled cortisone to cortisol) in lysates of stably transfected HEK-293 cells; type: biochemical; details: 20 μM compound, 100 nM cortisone substrate, HEK-293 lysate
measurement-name: 11β-HSD1 % of control

1) Cc1cccc(C)c1C1C(SCC(=O)Nc2c(Cl)cccc2Cl)=NN=C1c1cccc([S+]([O-])N(C)C)c1 (stereo not shown): 70.1 % of control
2) CC1(C)[C@@H](OCO)CC[C@]2(C)[C@H]3C(=O)C=C4C5=C[C@@](C)(C(=O)O)CC[C@]5(C)CC[C@@]4(C)[C@]3(C)CC[C@@H]12: 50.37 % of control
3) Cc1n[nH]c(O)c1C(c1ccc(-c2ccc(Cl)c(C(=O)O)c2)o1)c1c(O)n[nH]c1C: 69.75 % of control
4) COc1cccc(/C=N/NC(=O)CSCc2ccccc2C)c1OC: 85.07 % of control
